target: human MetAP2 enzyme (Homo sapiens); assay: MetAP2 enzyme assay, enzyme complexed with cobalt ions; settings: MetAP2 Co pIC50, MetAP2 enzyme complexed with cobalt ions; Met-AMC substrate at Km
reportedMetric: IC50 (nM)
I only need the number, in nM, no unit after it.

Consider the reported IC50 for these compounds:
- Cc1nn(CCN)c(C)c1-c1cc(C(F)(F)F)cc2[nH]ncc12: 39.8
- Fc1c(-c2cc(C(F)(F)F)cc3[nH]ncc23)ccnc1N1CCOCC1: 15.8
- Cc1c(-c2cc(C(F)(F)F)cc3[nH]ncc23)cnn1C: 25.1

input: May I ask what IC50 has been recorded for Cc1ccc(C(=O)NCCO)cc1-c1cc(C(F)(F)F)cc2[nH]ncc12 ?
output: 31.6

input: Please look up its IC50: Cn1c(-c2cc(C(F)(F)F)cc3[nH]ncc23)nc2c1c(=O)[nH]c(=O)n2C
output: 158

---

target: human MetAP2 enzyme (Homo sapiens); test: MetAP2 enzyme assay, enzyme complexed with manganese ions; conditions: MetAP2 Mn pIC50, MetAP2 enzyme complexed with manganese ions; Met-AMC substrate at Km
reportedMetric: IC50 (nM)
Please reply with the bare figure in nM and do not write the unit itself.

Take a look at these entries with their results.
• Cc1c(C(=O)N2CCN(C)CC2)cc(-c2cc(C(F)(F)F)cc3[nH]ncc23)c(=O)n1C [Example 401] = 6.31
• FC(F)(F)c1cc(-c2cnn(Cc3cccnc3)c2)c2cn[nH]c2c1 [Example 96] = 5.01
• Cc1c(-c2cc(C(F)(F)F)cc3[nH]ncc23)ccc2ncnn12 [Example 393] = 6.31
• COc1cncc(-c2cc(C(F)(F)F)cc3[nH]ncc23)c1 [Example 42] = 6.31
• Cc1ccc(S(=O)(=O)N(C)C)cc1-c1cc(C(F)(F)F)cc2[nH]ncc12 [Example 127] = 12.6

input: Need IC50, item Cn1cc(C(=O)NCC#N)cc(-c2cc(C(F)(F)F)cc3[nH]ncc23)c1=O [Example 354]
output: 6.31

---

target: human MetAP2 enzyme (Homo sapiens, UniProt P50579); experiment: MetAP2 enzyme assay, enzyme complexed with manganese ions; conditions: MetAP2 Mn pIC50, MetAP2 enzyme complexed with manganese ions; Met-AMC substrate at Km
Sequence (P50579 whole entry): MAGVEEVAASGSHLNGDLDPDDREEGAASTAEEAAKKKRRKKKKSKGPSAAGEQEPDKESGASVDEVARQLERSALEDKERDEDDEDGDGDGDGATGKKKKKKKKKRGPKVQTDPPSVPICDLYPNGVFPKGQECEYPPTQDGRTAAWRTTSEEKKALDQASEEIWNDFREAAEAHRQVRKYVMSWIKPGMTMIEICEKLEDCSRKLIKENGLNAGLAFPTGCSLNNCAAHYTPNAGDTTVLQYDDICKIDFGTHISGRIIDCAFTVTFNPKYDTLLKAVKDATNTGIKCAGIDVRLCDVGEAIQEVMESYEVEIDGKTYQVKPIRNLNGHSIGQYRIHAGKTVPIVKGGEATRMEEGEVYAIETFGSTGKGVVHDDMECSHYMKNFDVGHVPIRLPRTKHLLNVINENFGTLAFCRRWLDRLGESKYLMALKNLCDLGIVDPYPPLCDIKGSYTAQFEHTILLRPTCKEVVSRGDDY
Parameter: IC50. Scope: all listed entries.
Express the result in nM but write the number alone.

- CC(=O)Nc1ccc(-c2cc(C(F)(F)F)cc3[nH]ncc23)c(C)n1 [Example 178]: 7.94
- CN1C(=O)COc2ccc(-c3cc(C(F)(F)F)cc4[nH]ncc34)cc21 [Example 296]: 6.31
- OCCNc1ncc(-c2cc(C(F)(F)F)cc3[nH]ncc23)cn1 [Example 209]: 6.31
- Cc1nc(N2C[C@H]3C[C@H]3C2C(N)=O)ncc1-c1cc(C(F)(F)F)cc2[nH]ncc12 (stereo partly drawn) [Example 415]: 7.94
- COc1ncc(N)cc1-c1cc(C(F)(F)F)cc2[nH]ncc12 [Example 187]: 7.94
- N#Cc1cc(F)ccc1-c1cc(C(F)(F)F)cc2[nH]ncc12 [Example 75]: 7.94
- NS(=O)(=O)c1ccc(-c2cc(C(F)(F)F)cc3[nH]ncc23)c(Cl)c1 [Example 351]: 12.6
- Cc1c(-c2cc(C(F)(F)F)cc3[nH]ncc23)cnn1C [Example 79]: 10

Field: next compound
input: Bench note: what IC50 did FC(F)(F)c1cc(-c2cccnc2)c2cn[nH]c2c1 [Example 19] show?
output: 3.16

---

target: human MetAP2 enzyme (Homo sapiens, UniProt P50579); assay: MetAP2 enzyme assay, enzyme complexed with cobalt ions; details: MetAP2 Co pIC50, MetAP2 enzyme complexed with cobalt ions; Met-AMC substrate at Km
reportedMetric: IC50 (nM)
Your answer is read as nM, so omit the unit and give the number.

Solved entries (count: 4):
- FC(F)(F)c1cc(-c2cnc3ccccn23)c2cn[nH]c2c1 [Example 149]: 501
- FC(F)(F)c1cc(-c2cnc3ncccn23)c2cn[nH]c2c1 [Example 151]: 200
- FC(F)(F)c1cc(-c2cnc(NC3CC3)nc2)c2cn[nH]c2c1 [Example 197]: 63.1
- Cc1nn(C)c2cc(-c3cc(C(F)(F)F)cc4[nH]ncc34)ccc12 [Example 68]: 25.1

Shifting focus to the molecule that follows.
input: Query (molecule): Cc1ccc(C(=O)N2CC(O)C2)cc1-c1cc(C(F)(F)F)cc2[nH]ncc12 [Example 369] ; field requested: IC50
output: 31.6

---

target: human MetAP2 enzyme (Homo sapiens, UniProt P50579); experiment: MetAP2 enzyme assay, enzyme complexed with manganese ions; conditions: MetAP2 Mn pIC50, MetAP2 enzyme complexed with manganese ions; Met-AMC substrate at Km
pIC50: −log10 of the molar value.
Classify by measured pIC50: true (1) if it is equal to or exceeds 8, false (0) if it is smaller.

• COC(=O)c1ccc(-c2cc(C(F)(F)F)cc3[nH]ncc23)cn1 = true (1)
• N#Cc1cnc2c(-c3cc(C(F)(F)F)cc4[nH]ncc34)cnn2c1N = false (0)
• O=C(O)c1ncncc1-c1cc(C(F)(F)F)cc2[nH]ncc12 = false (0)
• O=C1Cc2c(cccc2-c2cc(C(F)(F)F)cc3[nH]ncc23)N1 = true (1)
• CN(C)C(=O)c1c[nH]c(=O)c(-c2cc(C(F)(F)F)cc3[nH]ncc23)c1 = false (0)

Next:
input: pIC50 >= 8 for Cn1ncc(-c2cc(C(F)(F)F)cc3[nH]ncc23)c1N ?
output: false (0)

---

target: human MetAP2 enzyme (Homo sapiens, UniProt P50579); test: MetAP2 enzyme assay, enzyme complexed with cobalt ions; settings: MetAP2 Co pIC50, MetAP2 enzyme complexed with cobalt ions; Met-AMC substrate at Km
reportedMetric: pIC50
pIC50 (log units): -log10 of the concentration in mol/L.

- Cn1ncc2ccc(-c3cc(C(F)(F)F)cc4[nH]ncc34)cc21: 7.50
- O=C1Cc2cccc(-c3cc(C(F)(F)F)cc4[nH]ncc34)c2N1: 6.80
- FC(F)(F)c1cc(-c2cnc3ccnn3c2)c2cn[nH]c2c1: 6.90
- CC(=O)Nc1cccnc1-c1cc(C(F)(F)F)cc2[nH]ncc12: 5.70
- CN1CCN(C(=O)c2cc(-c3cc(C(F)(F)F)cc4[nH]ncc34)cnc2N)CC1: 7.30

input: Report pIC50 for Cc1n[nH]c(C)c1-c1cc(C(F)(F)F)cc2[nH]ncc12 tested on human MetAP2 enzyme (Homo sapiens, UniProt P50579).
output: 7.40

input: Which pIC50 is reported with human MetAP2 enzyme (Homo sapiens, UniProt P50579) for this entry: COc1ncc(-c2cc(C(F)(F)F)cc3[nH]ncc23)cn1 ?
output: 7.00

input: // map FC(F)(F)c1cc(-c2cnc(N3CCCC3)nc2)c2cn[nH]c2c1 to recorded pIC50 (system: human MetAP2 enzyme (Homo sapiens, UniProt P50579))
output: 7.40

input: What pIC50 appears in the records for this compound with human MetAP2 enzyme (Homo sapiens, UniProt P50579)? Cc1nc(C(=O)NCCO)ccc1-c1cc(C(F)(F)F)cc2[nH]ncc12
output: 7.60

---

biological target: human MetAP2 enzyme (Homo sapiens); experiment: MetAP2 enzyme assay, enzyme complexed with cobalt ions; settings: MetAP2 Co pIC50, MetAP2 enzyme complexed with cobalt ions; Met-AMC substrate at Km
pIC50: −log10 of the molar value.
Record 1 whenever pIC50 is at 7 or higher; record 0 when lower.

Consider the following illustrative entries.
• FC(F)(F)c1cc(-c2ccnc3ccccc23)c2cn[nH]c2c1 [Example 112] = 1
• CN(C)S(=O)(=O)c1ccccc1-c1cc(C(F)(F)F)cc2[nH]ncc12 [Example 183] = 0
• Cn1cc(C(=O)NCC(F)F)cc(-c2cc(C(F)(F)F)cc3[nH]ncc23)c1=O [Example 355] = 0
• CS(=O)(=O)Nc1ccccc1-c1cc(C(F)(F)F)cc2[nH]ncc12 [Example 44] = 1
• Cc1nn(CCC(N)=O)c(C)c1-c1cc(C(F)(F)F)cc2[nH]ncc12 [Example 172] = 1
• Cn1cc2c(-c3cc(C(F)(F)F)cc4[nH]ncc34)cccc2n1 [Example 15] = 1

input: Reported pIC50 at or above 7? Oc1ncccc1-c1cc(C(F)(F)F)cc2[nH]ncc12 [Example 210]
output: 0

---

target: UniProt:P50579; assay: MetAP2 enzyme assay, enzyme complexed with manganese ions; conditions: MetAP2 Mn pIC50, MetAP2 enzyme complexed with manganese ions; Met-AMC substrate at Km
reportedMetric: pIC50
Just so you know, pIC50 here is -log10 of the concentration in molar units; reply with that number alone.

Reference set, count: 4
• CC(=O)Nc1cc(C)c(-c2cc(C(F)(F)F)cc3[nH]ncc23)cn1 [Example 179] = 8.00
• CCOc1ncccc1-c1cc(C(F)(F)F)cc2[nH]ncc12 [Example 133] = 8.00
• Cc1nc(NS(C)(=O)=O)ccc1-c1cc(C(F)(F)F)cc2[nH]ncc12 [Example 257] = 8.10
• NC(=O)c1cccc(-c2cc(C(F)(F)F)cc3[nH]ncc23)c1 [Example 18] = 8.50

input: GET /values?readout=pIC50&item= Cc1cc(=O)n(C)cc1-c1cc(C(F)(F)F)cc2[nH]ncc12 [Example 403]
output: 8.00

input: Which pIC50 value belongs to Cc1nnc(-c2ccc(-c3cc(C(F)(F)F)cc4[nH]ncc34)cc2)o1 [Example 120] ?
output: 7.80

input: Suppose we examine the compound N#Cc1ccccc1-c1cc(C(F)(F)F)cc2[nH]ncc12 [Example 52] ; what pIC50 value has been reported?
output: 7.90

input: Reported pIC50 for CNC(=O)c1ncncc1-c1cc(C(F)(F)F)cc2[nH]ncc12 [Example 254] : what is it?
output: 7.50

input: Any idea what pIC50 was measured for Cn1cc(C(=O)N2CCOCC2)cc(-c2cc(C(F)(F)F)cc3[nH]ncc23)c1=O [Example 314] ?
output: 7.70
